system: Connective Tissue Growth Factor (CTGF) gene expression; assay: Real time quantitative PCR in TGFβ-stimulated human hepatic stellate cells (LX2) to detect CTGF gene expression; type: cell-based; conditions: LX-2, 1 μM, CTGF mRNA in TGFβ-stimulated LX2 cells vs vehicle control
Please go through the items and note down their inhibition at 1 µM.

Solved entries (count: 3):
# MOLECULAR_STRING, TARGET_ENTITY, inhibition at 1 µM
records = [
    ("N/C(=N\\O)c1cnc(Nc2ncc(-c3ccc(C(F)(F)F)cc3)o2)cn1", "Connective Tissue Growth Factor (CTGF) gene expression", "70 to 80%"),
    ("Oc1cnc(Nc2ncc(-c3ccc(C(F)(F)F)cc3)o2)cc1O", "Connective Tissue Growth Factor (CTGF) gene expression", "> 90%"),
    ("O=c1cc(Nc2ncc(-c3ccc(C(F)(F)F)cc3)o2)ccn1O", "Connective Tissue Growth Factor (CTGF) gene expression", "30 to 40%"),
]

I need inhibition at 1 µM for every entry listed below, if you could help.
1. N/C(=N\O)c1cnc(Nc2ncc(-c3ccc(C(F)(F)F)cn3)o2)cn1
2. CN(O)C(=O)c1ccc(Nc2ncc(-c3ccc(C(F)(F)F)cc3)o2)cn1

Result:
1. 1 to 10%
2. 10 to 20%

====

assay: T1/2 Human Liver Microsomes; assay type: in vitro ADME
REPORTED_PROPERTY: half-life

Solved entries (count: 5):
# COMPOUND, EXPERIMENTAL_VALUE
rows = [
    ("N/C(=N\\O)c1ccc(Nc2ncc(-c3ccc(C(F)(F)F)cc3)o2)nn1 [drawing 418]", "2.5 to 2.83 h"),
    ("N/C(=N\\O)c1ccc(Nc2ncn(-c3ccc(C(F)(F)F)cc3)n2)cn1 [drawing 416]", "2.83 to 3 h"),
    ("N=C(NO)c1ccc(Nc2ncc(-c3ccc(C(F)(F)F)cc3)o2)cc1", "0.5 to 0.667 h"),
    ("N=C(NO)c1ccc(Nc2ncc(-c3ccc(C(F)(F)F)cn3)o2)cn1 [drawing 417]", "3.17 to 3.33 h"),
    ("O=C(NCC(O)CO)c1ccc(Nc2ncc(-c3ccc(C(F)(F)F)cc3)o2)cn1 (stereo not drawn)", "3.5 to 3.67 h"),
]

Ask: State its half-life: N=C(NO)c1ccc(Nc2ncc(-c3ccc(C(F)(F)F)cc3)o2)cn1 [drawing 414]
Result: 1.5 to 1.67 h

====

Target: Des1 (h) (Homo sapiens)
Construct: endogenous in cells; host or cells: parental Jurkat cells
Sequence (O15121 1-323): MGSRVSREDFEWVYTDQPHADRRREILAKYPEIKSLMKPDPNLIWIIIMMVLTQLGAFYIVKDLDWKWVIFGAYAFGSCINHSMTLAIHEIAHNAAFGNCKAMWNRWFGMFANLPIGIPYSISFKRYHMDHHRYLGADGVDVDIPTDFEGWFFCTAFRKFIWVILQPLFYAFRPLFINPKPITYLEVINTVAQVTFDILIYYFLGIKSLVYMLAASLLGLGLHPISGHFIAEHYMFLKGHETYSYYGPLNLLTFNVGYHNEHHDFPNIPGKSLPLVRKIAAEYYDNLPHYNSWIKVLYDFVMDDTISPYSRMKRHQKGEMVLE
Assay: Measurement of Dihydroceramide Desaturase-1 (Des-1) activity in intact Jurkat cells labeled with DhCer-C6-NBD (HPLC)
Format: cell-based
Settings: intact Jurkat cells; given as concentration range, or <X / >X if measured at one concentration X only; read-out: Des1 (h) Jurkat IC50
pIC50: −log10 of the molar value.
Please go through the items and note down their pIC50.

# COMPOUND, pIC50
rows = [
    ("N/C(=N\\O)c1ccc(Nc2ccn(-c3ccc(C(F)(F)F)cn3)n2)cn1 [Example 73]", "> 6.00"),
    ("N/C(=N\\O)c1ncc(Nc2ncn(-c3ccc(C(F)(F)F)cc3)n2)cc1O [Example 31]", "> 6.00"),
    ("N/C(=N\\O)c1ccc(Nc2cnn(-c3ccc(C(F)(F)F)cn3)c2)cn1 [Example 72]", "> 6.00"),
    ("O=C(NCC(O)CO)c1ccc(Nc2cnn(-c3ccc(C(F)(F)F)cn3)c2)cn1 (racemic) [Compound 104]", "< 6.00"),
]

Read the next record carefully.
Ask: Jot down pIC50 (Des1 (h) (Homo sapiens)) of N/C(=N\O)c1cnc(Nc2ccn(-c3ccc(C(F)(F)F)cn3)n2)cn1 [Compound 112] .
Result: > 6.00

====

test system: Connective Tissue Growth Factor (CTGF) gene expression; assay: Real time quantitative PCR in TGFβ-stimulated human hepatic stellate cells (LX2) to detect CTGF gene expression; assay type: cell-based; details: LX-2, 1 μM, CTGF mRNA in TGFβ-stimulated LX2 cells vs vehicle control
REPORTED_PROPERTY: inhibition at 1 µM

# MOLECULAR_STRING, EXPERIMENTAL_VALUE
data = [
    ("N/C(=N\\O)c1cnc(Nc2ncn(-c3ccc(C(F)(F)F)cc3)n2)cn1", "30 to 40%"),
    ("N/C(=N\\O)c1ncc(Nc2ncc(-c3ccc(C(F)(F)F)cc3)o2)cn1", "20 to 30%"),
    ("N/C(=N\\O)c1ccc(Nc2ncc(-c3ccc(OC(F)(F)F)cc3)o2)cn1", "50 to 60%"),
    ("N/C(=N\\O)c1cnc(Nc2ccn(-c3ccc(C(F)(F)F)cn3)n2)cn1", "> 90%"),
]

I need inhibition at 1 µM for every entry listed below, if you could help.
1. N/C(=N\O)c1ccc(Nc2ncc(-c3ccc(OC(F)(F)F)cn3)o2)cn1
2. N/C(=N\O)c1nnc(Nc2ncc(-c3ccc(C(F)(F)F)cc3)o2)cc1O
3. N/C(=N\O)c1ccc(Nc2cnn(-c3ccc(C(F)(F)F)cn3)c2)cn1
4. N/C(=N\O)c1ccc(Nc2ncc(-c3ccc(C4CC4)cc3)o2)cn1

Result:
1: 1 to 10%; 2: 10 to 20%; 3: 40 to 50%; 4: 40 to 50%

====

target: Des1 (h) (Homo sapiens, UniProt O15121); construct: endogenous in cells; host or cells: parental Jurkat cells; assay: Measurement of Dihydroceramide Desaturase-1 (Des-1) activity in intact Jurkat cells labeled with DhCer-C6-NBD (HPLC); format: cell-based; details: Jurkat cells; 1 μM
Note to self: values exactly at 30% are Satisfied. So inhibition at 1 µM at or above 30% is Satisfied, below is Not satisfied.

Illustrative cases are given below, each with its answer.
# COMPOUND, CLASSIFICATION
measured = [
    ("N/C(=N\\O)c1cnc(Nc2nc(-c3ccc(C(F)(F)F)cn3)no2)cn1", "Not satisfied"),
    ("O=C(NCC(O)CO)c1ccc(Nc2cnn(-c3ccc(C(F)(F)F)cn3)c2)cn1 (racemic)", "Not satisfied"),
]

Ask: Please tell me: is the compound `N/C(=N\O)c1cnc(Nc2nc(-c3ccc(Cl)cn3)no2)cn1` at or over 30% in terms of inhibition at 1 µM?
Result: Not satisfied

Ask: Please tell me: is the compound `Cn1nc(-c2ccc(C(F)(F)F)cn2)cc1Nc1ccc(/C(N)=N\O)nc1` at or over 30% in terms of inhibition at 1 µM?
Result: Not satisfied

Ask: Please tell me: is the compound `N/C(=N\O)c1ccc(Nc2ncc(-c3ccc(OC(F)(F)F)cn3)o2)cn1` at or over 30% in terms of inhibition at 1 µM?
Result: Satisfied

====

Please go through the items and note down their pIC50.
target: Des1 (h) (Homo sapiens, UniProt O15121); construct: endogenous in cells; host or cells: parental Jurkat cells; test: Measurement of Dihydroceramide Desaturase-1 (Des-1) activity in intact Jurkat cells labeled with DhCer-C6-NBD (HPLC); type: cell-based; settings: intact Jurkat cells; given as concentration range, or <X / >X if measured at one concentration X only; read-out: Des1 (h) Jurkat IC50
pIC50: −log10 of the molar value.

# COMPOUND, REPORTED_PROPERTY, EXPERIMENTAL_VALUE
rows = [
    ("N/C(=N/O)c1ccc(Nc2ncn(-c3ccc(C(F)(F)F)cn3)n2)cn1 [Compound 107]", "pIC50", "> 6.00"),
    ("O=c1c(O)c(Nc2ccc(Nc3ncc(-c4ccc(C(F)(F)F)cc4)o3)cn2)c1=O [Example 30]", "pIC50", "> 6.00"),
    ("N/C(=N/O)c1ccc(Nc2nnc(-c3ccc(Cl)cn3)o2)cn1 [Example 71]", "pIC50", "< 6.00"),
]

I need pIC50 for every entry listed below, if you could help.
1. N/C(=N\O)c1cnc(Nc2ncc(-c3ccc(C(F)(F)F)cc3)o2)nc1 [Example 63]
2. Oc1ccc(Nc2ncc(-c3ccc(OC(F)(F)F)cc3)o2)nc1 [Compound 105]
3. N/C(=N\O)c1ccc(Nc2ncc(-c3ccc(C(F)(F)F)cc3)o2)nn1 [Example 53]
4. N/C(=N/O)c1ccc(Nc2cn(-c3ccc(C(F)(F)F)cn3)nn2)cn1 [Compound 115]

Result:
1: < 6.00; 2: > 6.00; 3: 8.00 to 9.00; 4: > 6.00

I need pIC50 for every entry listed below, if you could help.
1. O=C(NC[C@@H](O)CO)c1ccc(Nc2ncn(-c3ccc(C(F)(F)F)cc3)n2)cn1 [Example 38]
2. N/C(=N\O)c1ccc(Nc2ncc(-c3ccc(C(F)(F)F)nn3)o2)cn1 [Compound 119]
3. NNC(=O)c1ccc(Nc2ncc(-c3ccc(C(F)(F)F)cc3)o2)cn1 [Compound 92]
4. N/C(=N/O)c1ccc(Nc2cc(-c3ccc(C(F)(F)F)cn3)no2)cn1 [Example 75]
5. Cn1nc(Nc2cnc(/C(N)=N/O)cn2)cc1-c1ccc(C(F)(F)F)cn1 [Compound 110]

Result:
["< 6.00", "< 6.00", "6.00 to 7.00", "> 6.00", "< 6.00"]
